Protocol text: Thermodynamic solubility of compound at pH 2
Type: physicochemical
Reported conditions: buffer, read-out: Therm_solubility

# Compound structure string, Reading unit, solubility thermodynamic
data = [
    ("CCN1CC2(CCN(CCc3cc(F)ccc3F)CC2)O[C@H](C)C1=O", "mg/mL", 45.1),
]

====

Experimental target: CYP3A4 (Homo sapiens)
Sequence (P08684 whole entry): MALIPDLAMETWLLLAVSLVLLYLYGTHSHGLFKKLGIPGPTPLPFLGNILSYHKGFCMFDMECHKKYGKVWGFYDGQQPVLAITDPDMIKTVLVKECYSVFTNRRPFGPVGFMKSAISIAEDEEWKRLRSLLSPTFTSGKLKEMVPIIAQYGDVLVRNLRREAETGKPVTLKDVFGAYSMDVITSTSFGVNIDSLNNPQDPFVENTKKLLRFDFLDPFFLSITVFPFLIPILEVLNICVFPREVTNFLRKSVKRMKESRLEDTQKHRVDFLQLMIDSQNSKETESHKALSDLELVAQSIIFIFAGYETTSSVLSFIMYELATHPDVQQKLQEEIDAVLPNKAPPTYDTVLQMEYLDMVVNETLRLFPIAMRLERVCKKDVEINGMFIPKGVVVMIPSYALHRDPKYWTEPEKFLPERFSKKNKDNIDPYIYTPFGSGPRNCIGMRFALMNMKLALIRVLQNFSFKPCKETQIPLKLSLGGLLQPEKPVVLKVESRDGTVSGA
Protocol text: Inhibition of human CYP3A4 at 1 uM relative to control
Format: ADME

# Compound structure string, Experimental target, inhibition at 1 µM
records = [
    ("CCN1CC2(CCN(CCc3cc(F)ccc3F)CC2)O[C@H](C)C1=O", "CYP3A4 (Homo sapiens)", "< 50%"),
]

====

Protocol text: Thermodynamic solubility of compound at pH 7.4
Type: physicochemical
Reported conditions: buffer, read-out: Therm_solubility

# Compound structure string, solubility thermodynamic, mg/mL
data = [
    ("CCN1CC2(CCN(CCc3cc(F)ccc3F)CC2)O[C@H](C)C1=O", 17.7),
]

====

Protocol text: Permeability in human Caco-2 cells
Type: ADME, cell-based
Test readout: Papp (nm/s)

# Compound structure string, Reading unit, Observed value
data = [
    ("CCN1CC2(CCN(CCc3cc(F)ccc3F)CC2)O[C@H](C)C1=O", "nm/s", 349),
]

====

Measured pIC50 on Voltage-gated inwardly rectifying potassium channel KCNH2 (Homo sapiens) follows.
Sequence (Q12809 whole entry): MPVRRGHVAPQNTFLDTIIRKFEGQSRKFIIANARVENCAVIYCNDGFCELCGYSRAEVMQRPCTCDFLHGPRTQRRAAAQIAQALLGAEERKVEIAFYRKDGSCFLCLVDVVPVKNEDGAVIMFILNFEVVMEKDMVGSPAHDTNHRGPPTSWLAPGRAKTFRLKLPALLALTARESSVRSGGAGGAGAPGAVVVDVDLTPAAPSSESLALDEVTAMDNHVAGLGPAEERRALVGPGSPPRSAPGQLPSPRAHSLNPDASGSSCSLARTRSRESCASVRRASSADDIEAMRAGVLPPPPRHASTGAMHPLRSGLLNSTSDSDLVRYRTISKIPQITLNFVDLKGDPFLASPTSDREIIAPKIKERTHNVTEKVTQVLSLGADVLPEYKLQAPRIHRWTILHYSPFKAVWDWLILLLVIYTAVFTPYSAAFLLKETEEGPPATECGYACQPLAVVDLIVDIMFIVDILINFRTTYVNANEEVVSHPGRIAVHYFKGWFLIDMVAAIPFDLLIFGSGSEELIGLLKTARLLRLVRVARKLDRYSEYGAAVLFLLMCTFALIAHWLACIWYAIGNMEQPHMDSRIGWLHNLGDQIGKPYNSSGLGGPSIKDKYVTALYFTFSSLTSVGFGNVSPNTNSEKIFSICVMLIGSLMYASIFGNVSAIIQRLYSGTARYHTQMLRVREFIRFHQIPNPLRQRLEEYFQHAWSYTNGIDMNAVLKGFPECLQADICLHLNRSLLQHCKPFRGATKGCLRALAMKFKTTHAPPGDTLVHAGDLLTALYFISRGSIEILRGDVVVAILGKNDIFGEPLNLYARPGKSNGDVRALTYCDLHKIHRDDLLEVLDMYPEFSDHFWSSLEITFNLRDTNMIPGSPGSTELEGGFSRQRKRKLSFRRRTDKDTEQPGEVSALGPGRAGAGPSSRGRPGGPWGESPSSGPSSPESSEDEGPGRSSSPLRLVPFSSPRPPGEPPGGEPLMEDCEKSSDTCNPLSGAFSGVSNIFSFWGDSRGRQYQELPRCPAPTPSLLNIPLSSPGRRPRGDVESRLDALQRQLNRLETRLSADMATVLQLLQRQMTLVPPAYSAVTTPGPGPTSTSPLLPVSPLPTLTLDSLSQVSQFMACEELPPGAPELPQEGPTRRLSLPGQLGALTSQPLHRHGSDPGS
pIC50: −log10 of the molar value.

# Compound, Experimental target, Qualifier symbol, pIC50
rows = [
    ("CC1OC2(CCN(CCc3ccccc3)CC2)CN(C(C)C)C1=O (centres undefined)", "Voltage-gated inwardly rectifying potassium channel KCNH2 (Homo sapiens)", "=", 5.41),
    ("C[C@H]1OC2(CCN(CCc3ccccc3)CC2)CN(C)C1=O", "Voltage-gated inwardly rectifying potassium channel KCNH2 (Homo sapiens)", "<", 5.00),
    ("CC1OC2(CCN(CCc3ccccc3)CC2)CN(C)C1=O (centres undefined)", "Voltage-gated inwardly rectifying potassium channel KCNH2 (Homo sapiens)", "<", 5.00),
    ("COc1ccc2c3c1O[C@H]1C(=O)CC[C@@]4(O)[C@@H](C2)N(C)CC[C@]314", "Voltage-gated inwardly rectifying potassium channel KCNH2 (Homo sapiens)", "<", 5.00),
    ("CC1OC2(CCN(CCc3ccccc3)CC2)CN(Cc2ccccc2)C1=O (centres undefined)", "Voltage-gated inwardly rectifying potassium channel KCNH2 (Homo sapiens)", "=", 7.00),
    ("CCN1CC2(CCN(CCc3cccc(F)c3F)CC2)O[C@H](C)C1=O", "Voltage-gated inwardly rectifying potassium channel KCNH2 (Homo sapiens)", "<", 5.00),
    ("C[C@H]1OC2(CCN(CCc3ccccc3)CC2)CN(C2CC2)C1=O", "Voltage-gated inwardly rectifying potassium channel KCNH2 (Homo sapiens)", "=", 5.35),
    ("CCN1CC2(CCN(CCc3ccc(F)cc3F)CC2)O[C@H](C)C1=O", "Voltage-gated inwardly rectifying potassium channel KCNH2 (Homo sapiens)", "=", 5.60),
    ("CC1OC2(CCN(CCc3ccccc3)CC2)CN(CCc2ccccc2)C1=O (centres undefined)", "Voltage-gated inwardly rectifying potassium channel KCNH2 (Homo sapiens)", "=", 6.70),
    ("CCN1CC2(CCN(CCc3ccccc3)CC2)OC(C)C1=O (centres undefined)", "Voltage-gated inwardly rectifying potassium channel KCNH2 (Homo sapiens)", "=", 5.51),
    ("CC[C@H]1OC2(CCN(CCc3ccccc3)CC2)CN(C)C1=O", "Voltage-gated inwardly rectifying potassium channel KCNH2 (Homo sapiens)", "=", 5.18),
    ("CCN1CC2(CCN(CCc3ccc(F)cc3)CC2)O[C@H](C)C1=O", "Voltage-gated inwardly rectifying potassium channel KCNH2 (Homo sapiens)", "=", 5.82),
    ("CC(C)C1OC2(CCN(CCc3ccccc3)CC2)CN(C)C1=O (centres undefined)", "Voltage-gated inwardly rectifying potassium channel KCNH2 (Homo sapiens)", "=", 5.21),
    ("CCN1CC2(CCN(CCc3ccccc3F)CC2)O[C@H](C)C1=O", "Voltage-gated inwardly rectifying potassium channel KCNH2 (Homo sapiens)", "=", 5.40),
    ("CC1OC2(CCN(CCc3ccccc3)CC2)CN(CCc2ccccc2F)C1=O (centres undefined)", "Voltage-gated inwardly rectifying potassium channel KCNH2 (Homo sapiens)", "<", 5.00),
    ("CCN1CC2(CCN(CCc3cc(F)ccc3F)CC2)O[C@@H](C)C1=O", "Voltage-gated inwardly rectifying potassium channel KCNH2 (Homo sapiens)", "<", 5.00),
    ("CCN1CC2(CCN(CCc3cc(F)ccc3F)CC2)O[C@H](C)C1=O", "Voltage-gated inwardly rectifying potassium channel KCNH2 (Homo sapiens)", "<", 5.00),
    ("CN1CC2(CCN(CCc3ccccc3)CC2)OC2(CC2)C1=O", "Voltage-gated inwardly rectifying potassium channel KCNH2 (Homo sapiens)", "=", 5.44),
    ("CCN1CC2(CCN(CCc3ccccc3)CC2)O[C@H](C)C1=O", "Voltage-gated inwardly rectifying potassium channel KCNH2 (Homo sapiens)", "=", 5.33),
]

====

Experimental target: Mu-type opioid receptor (Homo sapiens)
Sequence (P35372 whole entry): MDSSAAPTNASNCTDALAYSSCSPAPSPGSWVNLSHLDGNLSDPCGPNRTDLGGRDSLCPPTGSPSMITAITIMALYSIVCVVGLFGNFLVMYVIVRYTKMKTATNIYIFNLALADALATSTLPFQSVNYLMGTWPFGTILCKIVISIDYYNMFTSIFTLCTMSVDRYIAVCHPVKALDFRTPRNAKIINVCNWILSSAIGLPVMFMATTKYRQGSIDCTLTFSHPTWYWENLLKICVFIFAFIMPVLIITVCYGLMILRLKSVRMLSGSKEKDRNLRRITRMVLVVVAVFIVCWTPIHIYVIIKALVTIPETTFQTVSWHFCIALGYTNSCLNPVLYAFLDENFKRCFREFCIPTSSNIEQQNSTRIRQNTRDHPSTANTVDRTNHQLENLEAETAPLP
Protocol text: Agonist activity at human MOR expressed in CHOK1 cells assessed as […] of cAMP accumulation incubated for 45 mins by HTRF assay

# Molecule, Experimental target, Qualifier symbol, EC50, nM
data = [
    ("CC1OC2(CCN(CCc3ccccc3)CC2)CN(Cc2ccccc2)C1=O (stereo unspecified)", "Mu-type opioid receptor (Homo sapiens)", "=", 2),
    ("CCN1CC2(CCN(CCc3ccccn3)CC2)OC2(CC2)C1=O", "Mu-type opioid receptor (Homo sapiens)", "=", 1500),
    ("CCN1CC2(CCN(CCc3ccccc3F)CC2)O[C@H](C)C1=O", "Mu-type opioid receptor (Homo sapiens)", "=", 24),
    ("CN1CC2(CCN(CCc3ccccc3)CC2)OC(C)(C)C1=O", "Mu-type opioid receptor (Homo sapiens)", "=", 624),
    ("C[C@@H]1OC2(CCN(CCc3ccccc3)CC2)CN(C)C1=O", "Mu-type opioid receptor (Homo sapiens)", "=", 1780),
    ("CN1CC2(CCN(CCc3ccccc3)CC2)OCC1=O", "Mu-type opioid receptor (Homo sapiens)", ">", 1000),
]

====

Experimental target: Alpha-1A adrenergic receptor (Homo sapiens) (UniProt P35348)
Sequence (P35348 whole entry): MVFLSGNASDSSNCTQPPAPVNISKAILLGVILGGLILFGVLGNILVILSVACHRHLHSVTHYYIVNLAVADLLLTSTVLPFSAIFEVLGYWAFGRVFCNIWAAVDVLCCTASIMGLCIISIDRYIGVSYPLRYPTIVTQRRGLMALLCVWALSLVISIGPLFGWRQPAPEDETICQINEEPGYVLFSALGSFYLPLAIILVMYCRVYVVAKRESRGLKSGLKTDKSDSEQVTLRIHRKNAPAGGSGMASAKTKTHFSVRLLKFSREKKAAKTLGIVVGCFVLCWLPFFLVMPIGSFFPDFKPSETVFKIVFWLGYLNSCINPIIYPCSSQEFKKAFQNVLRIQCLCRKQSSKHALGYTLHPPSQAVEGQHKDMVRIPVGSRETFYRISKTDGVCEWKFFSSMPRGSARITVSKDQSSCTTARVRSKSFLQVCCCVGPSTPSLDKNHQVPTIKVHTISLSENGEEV
Protocol text: Binding affinity to human alpha1A adrenoreceptor expressed in membranes assessed as inhibition of [3H]-prazosin binding incubated for 90 mins by scintillation counting method
Set-up: concentration or dose not given beside the values
Reported conditions: Cell membrane
Test readout: inhibition (%)

# Compound, Experimental target, Test readout, Observed value
data = [
    ("CCN1CC2(CCN(CCc3cc(F)ccc3F)CC2)O[C@@H](C)C1=O", "Alpha-1A adrenergic receptor (Homo sapiens) (UniProt P35348)", "inhibition", 9),
    ("CCN1CC2(CCN(CCc3ccccc3F)CC2)O[C@H](C)C1=O", "Alpha-1A adrenergic receptor (Homo sapiens) (UniProt P35348)", "inhibition", 15),
    ("CC1OC2(CCN(CCc3ccccc3)CC2)CN(C(C)C)C1=O (stereo not given)", "Alpha-1A adrenergic receptor (Homo sapiens) (UniProt P35348)", "inhibition", 35),
    ("CCN1CC2(CCN(CCc3cccc(F)c3F)CC2)O[C@H](C)C1=O", "Alpha-1A adrenergic receptor (Homo sapiens) (UniProt P35348)", "inhibition", 8),
    ("CC1OC2(CCN(CCc3ccccc3)CC2)CN(CCc2ccccc2)C1=O (stereo not given)", "Alpha-1A adrenergic receptor (Homo sapiens) (UniProt P35348)", "inhibition", 58),
]

====

For Mu-type opioid receptor (Homo sapiens, UniProt P35372), measured Ki is reported for the entries below.

# Compound, Reading unit, Qualifier symbol, Ki
rows = [
    ("CCN1CC2(CCN(CCc3ccccc3)CC2)O[C@H](C)C1=O", "µM", "=", 0.026),
    ("CC1OC2(CCN(CCc3ccccc3)CC2)CN(C)C1=O (configuration not stated)", "µM", "=", 0.156),
    ("CC1OC2(CCN(CCc3ccccc3)CC2)CN(Cc2ccccc2)C1=O (configuration not stated)", "µM", "=", 0.002),
    ("CN1CC2(CCN(CCc3ccccc3)CC2)OC(c2ccccc2)C1=O (configuration not stated)", "µM", ">", 1),
    ("CCN1CC2(CCN(CCc3c(F)cccc3F)CC2)O[C@H](C)C1=O", "µM", "=", 0.021),
    ("CN1CC2(CCN(CCc3ccccc3)CC2)OCC1=O", "µM", ">", 1),
    ("CC(C)C1OC2(CCN(CCc3ccccc3)CC2)CN(C)C1=O (configuration not stated)", "µM", "=", 0.115),
    ("CN1CC2(CCN(CCc3ccccc3)CC2)OC2(CC2)C1=O", "µM", "=", 0.221),
    ("CCN1CC2(CCN(CCc3ccccn3)CC2)OC2(CC2)C1=O", "µM", ">", 1),
    ("CCN1CC2(CCN(CCc3ccccc3F)CC2)O[C@H](C)C1=O", "µM", "=", 0.018),
    ("CCN1CC2(CCN(CCc3ccc(F)cc3F)CC2)O[C@H](C)C1=O", "µM", "=", 0.062),
    ("CN1CC2(CCN(CCc3ccccc3)CC2)OC(C)(C)C1=O", "µM", ">", 1),
]
